These data points were gathered from patent US4132723A.

- assay.method.text: acute toxicity in mice after intraperitoneal administration in rape oil
- condition.info: mouse, in vivo, ip
outcome.measure: LD50
State the value, then name its unit.

Could you share which LD50 value was measured for COc1cc(C)c(CC/C(C)=C/C=C/C(C)=C/C(=O)O)c(C)c1C ?
1400 mg/kg
